I'd appreciate it if you could supply melting point values for the items below.
Where a SMILES comes first, the peptide text is derived from it. [ ]: non-standard residue; d: D form. The star is where a group is joined. NH(CH2)3NH(1-anthraquinonyl) = O=C1c2ccccc2C(=O)c2c(NCCCN*)cccc21; Nva = CCC[C@H](N)C(=O)O
Answers are plain numbers, in °C.

Here's what some known entries look like.
# compound, unitText, melting point
data = [
    ("CC(C)C[C@H](N)C(=O)N1CCC[C@H]1C(=O)NCCCNc1cccc2c1C(=O)c1ccccc1C2=O.O=C(O)C(F)(F)F [Example 3]", "°C", 126),
    ("CC(C)C[C@H](NC(=O)CNC(=O)[C@@H](N)CC(C)C)C(=O)N1CCC[C@H]1C(=O)NCCCNc1cccc2c1C(=O)c1ccccc1C2=O.O=C(O)C(F)(F)F [Example 5] (H-LGLP-{NH(CH2)3NH(1-anthraquinonyl)})", "°C", 144),
    ("CCC[C@H](N)C(=O)NCC(=O)N[C@@H](CC(C)C)C(=O)N1CCC[C@H]1C(=O)NCCCNc1cccc2c1C(=O)c1ccccc1C2=O.O=C(O)C(F)(F)F (H-[Nva]GLP-{NH(CH2)3NH(1-anthraquinonyl)})", "°C", 210),
]

Now consider the entry below.
Entry CSC[C@H](NC(=O)[C@H](C)NC(=O)[C@H](C)NC(=O)[C@@H](C)N)C(=O)NCC(=O)N[C@@H](CC(C)C)C(=O)N1CCC[C@H]1C(=O)NCCCNc1cccc2c1C(=O)c1ccccc1C2=O.O=C(O)C(F)(F)F has what melting point?
191

====

Where a SMILES comes first, the peptide text is derived from it. [ ]: non-standard residue; d: D form. The star is where a group is joined. NH(CH2)3NH(1-anthraquinonyl) = O=C1c2ccccc2C(=O)c2c(NCCCN*)cccc21; Nva = CCC[C@H](N)C(=O)O
Consider the following compounds; for each one, report its melting point.

Observe how each entry below is paired with its result.
# compound, recordedValue
measured = [
    ("CC(C)C[C@H](NC(=O)[C@H](C)NC(=O)[C@@H](N)CC(C)C)C(=O)N1CCC[C@H]1C(=O)NCCCNc1cccc2c1C(=O)c1ccccc1C2=O.O=C(O)C(F)(F)F (H-LALP-{NH(CH2)3NH(1-anthraquinonyl)})", "178 to 180 °C"),
    ("CC(C)C[C@H](NC(=O)[C@H](Cc1ccccc1)NC(=O)[C@@H](N)CC(C)C)C(=O)N1CCC[C@H]1C(=O)NCCCNc1cccc2c1C(=O)c1ccccc1C2=O.O=C(O)C(F)(F)F (H-LFLP-{NH(CH2)3NH(1-anthraquinonyl)})", "184 to 186 °C"),
]

Look at each compound and report its melting point.
1. CC(C)C[C@H](N)C(=O)NCC(=O)N1CCC[C@H]1C(=O)NCCCNc1cccc2c1C(=O)c1ccccc1C2=O.O=C(O)C(F)(F)F
2. CC[C@H](C)[C@H](NC(=O)[C@@H](N)Cc1ccccc1)C(=O)NCC(=O)N[C@@H](Cc1ccccc1)C(=O)N1CCC[C@@H]1C(=O)NCCCNc1cccc2c1C(=O)c1ccccc1C2=O.O=C(O)C(F)(F)F
3. CCC[C@H](NC(=O)CNC(=O)[C@@H](N)CC(C)C)C(=O)N1CCC[C@H]1C(=O)NCCCNc1cccc2c1C(=O)c1ccccc1C2=O.O=C(O)C(F)(F)F (H-LG[Nva]P-{NH(CH2)3NH(1-anthraquinonyl)})
4. CC(C)C[C@H](NC(=O)[C@H](C)NC(=O)[C@H](C)N)C(=O)NCC(=O)N[C@@H](CC(C)C)C(=O)N1CCC[C@@H]1C(=O)NCCCNc1cccc2c1C(=O)c1ccccc1C2=O.O=C(O)C(F)(F)F [Example 14]

["172 to 174 °C", "130 to 134 °C", "172 to 176 °C", "132 °C"]
